assay: Cmax in Sprague-Dawley rat at 1 mg/kg, po; type: ADME, organism-based; parameters: dose 1 mg/kg, route oral; settings: in vivo
MEASURED ATTRIBUTE: Cmax (ng/mL)
Please state the figure in ng/mL; there is no need to write the unit.

Give the reported Cmax for this molecule. `COc1cc2nc(N3CCc4c(cccc4NS(C)(=O)=O)C3)nc(N)c2c(-c2ccccn2)c1OC`
105

---

assay: Tmax in human at 0.02 mg/kg, po; assay type: ADME, organism-based; design: dose 0.02 mg/kg, route oral; settings: in vivo
MEASURED ATTRIBUTE: Tmax (h)
Give just the number in h; leave the unit off.

For the compound `COc1cc2nc(N3CCc4c(cccc4NS(C)(=O)=O)C3)nc(N)c2c(-c2ccccn2)c1OC` , report Tmax.
1.3

---

Parameter bioavailability: see the listing below.
experiment: Oral bioavailability in Beagle dog at 0.5 mg/kg; type: ADME, organism-based, Canis lupus familiaris; details: in vivo
Record the value in %, omitting the unit from your answer.

COc1cc2nc(N3CCCN(C(=O)N4CCOCC4)CC3)cc(N)c2c(-c2ncco2)c1OC : 76
COc1cc2nc(N3CCCN(C(=O)N4CCOCC4)CC3)cc(N)c2c(-c2ccccc2)c1OC : 24

Then there is this compound:
Using the record for `COc1cc2nc(N3CCc4ncccc4C3)nc(N)c2c(-c2ncccn2)c1OC` , state its measured bioavailability.
28

---

test: Plasma clearance in Beagle dog at 0.5 mg/kg, iv; format: ADME, organism-based, Canis lupus familiaris; parameters: dose 0.5 mg/kg, route intravenous
MEASURED ATTRIBUTE: clearance
Please format your answer as a value with the unit trailing.

# example entries with known answers
COc1cc2nc(N3CCCN(C(=O)N4CCOCC4)CC3)cc(N)c2c(-c2ncco2)c1OC : 5.9 mL/min/kg
COc1cc2nc(N3CCc4ncccc4C3)nc(N)c2c(-c2ncccn2)c1OC : 40 mL/min/kg
COc1cc2nc(N3CCCN(C(=O)N4CCOCC4)CC3)nc(N)c2cc1-c1ccccn1 : 23 mL/min/kg
COc1cc2nc(N3CCCN(C(=O)N4CCOCC4)CC3)cc(N)c2c(-c2ccc(F)cc2)c1OC : 15 mL/min/kg
COc1cc2c(cc1OC)CN(c1nc(N3CCCN(C(=O)N4CC(O)C(O)C4)CC3)nc3cc(OC)c(OC)cc13)CC2 (configuration not stated) : 47 mL/min/kg
COc1cc2nc(N3CCCN(C(=O)N4CCOCC4)CC3)nc(N)c2c(-c2ccccn2)c1OC : 20 mL/min/kg

Attention now shifts to the item below.
Identify measured clearance corresponding to `COc1cc2nc(N3CCCN(C(=O)N4CCOCC4)CC3)cc(N)c2c(-c2ccccc2)c1OC`
8.8 mL/min/kg

---

assay: Oral absorption in Beagle dog at 0.6 mg/kg, po; type: ADME, organism-based, Canis lupus familiaris; set-up: dose 0.6 mg/kg, route oral; settings: in vivo, read-out: Fabs
MEASURED ATTRIBUTE: Fa
Please provide the amount together with its unit, number first.

Give the value of Fa reported for the following: `COc1cc2nc(N3CCc4c(cccc4NS(C)(=O)=O)C3)nc(N)c2c(-c2ccccn2)c1OC`
89%

---

assay: Dissociation constant, pKa of the compound; type: physicochemical
MEASURED ATTRIBUTE: pKa
Keep it simple and answer with nothing but the number.

COc1cc2c(cc1OC)CN(c1nc(N3CCCN(C(=O)N4CC(O)C(O)C4)CC3)nc3cc(OC)c(OC)cc13)CC2 (stereo not drawn) : 6.2
COc1cc2nc(N3CCc4c(cccc4NS(C)(=O)=O)C3)nc(N)c2c(-c2ccccn2)c1OC : 6.7

Determine its reported pKa: `COc1cc2nc(N3CCc4ncccc4C3)nc(N)c2c(-c2ncccn2)c1OC`
6.5

Entry `COc1cc2nc(N3CCCN(C(=O)N4CCOCC4)CC3)cc(N)c2c(-c2ccccc2)c1OC` needs its pKa filled in; supply it.
8.5

Provide only the value of recorded pKa for `COc1cc2nc(N3CCCN(C(=O)N4CCOCC4)CC3)cc(N)c2c(-c2ccc(F)cc2)c1OC`
8.5

Respond only with pKa recorded for `COc1cc2nc(N3CCCN(C(=O)N4CCOCC4)CC3)nc(N)c2c(-c2ccccn2)c1OC`
6.9

Identify measured pKa corresponding to `COc1cc2nc(N3CCCN(C(=O)N4CCOCC4)CC3)nc(N)c2cc1-c1ccccn1`
6.6

Please supply the value of reported pKa for the item `COc1cc2nc(N3CCCN(C(=O)N4CCOCC4)CC3)cc(N)c2c(-c2ncco2)c1OC`
7.5
